tested-target: human TLR8 (Homo sapiens)
assay-details: HEK293-Blue-hTLR-8 cells assay (SEAP reporter, R848 stimulation)
condition-parameters: HEK293-Blue-hTLR8 cells, R848 ligand, 20 hrs incubation
measurement-type: pIC50
One number for each entry, as −log10 of the molar value.

Below, 3 compounds whose answers are already recorded.
>>> value_observed("CN(C)C[C@@H]1CCN(C[C@H]2CN(c3ccc(C#N)c4nccnc34)C[C@@H]2C(F)(F)F)C1 [Example 82]")
6.97
>>> value_observed("N#Cc1ccc(N2C[C@H](CN3CCC4(CCNCC4)C3)[C@@H](C(F)(F)F)C2)c2cccnc12 [Example 56]")
7.21
>>> value_observed("N#Cc1ccc(N2CC(CN3CCC4(CCCCN4)CC3)C3(CC3)C2)c2nccnc12 (stereo not shown) [Example 65]")
7.04

Turning now to a further compound:
Specify reported pIC50 for the compound shown: N#Cc1ccc(N2CC(CN3CCC4(CCNCC4)CC3)C3(CC3)C2)c2nccnc12 (stereo not shown) [Example 16]
6.88

---

tested-target: human TLR8 (Homo sapiens, UniProt Q9NR97)
Sequence (Q9NR97 27-1041): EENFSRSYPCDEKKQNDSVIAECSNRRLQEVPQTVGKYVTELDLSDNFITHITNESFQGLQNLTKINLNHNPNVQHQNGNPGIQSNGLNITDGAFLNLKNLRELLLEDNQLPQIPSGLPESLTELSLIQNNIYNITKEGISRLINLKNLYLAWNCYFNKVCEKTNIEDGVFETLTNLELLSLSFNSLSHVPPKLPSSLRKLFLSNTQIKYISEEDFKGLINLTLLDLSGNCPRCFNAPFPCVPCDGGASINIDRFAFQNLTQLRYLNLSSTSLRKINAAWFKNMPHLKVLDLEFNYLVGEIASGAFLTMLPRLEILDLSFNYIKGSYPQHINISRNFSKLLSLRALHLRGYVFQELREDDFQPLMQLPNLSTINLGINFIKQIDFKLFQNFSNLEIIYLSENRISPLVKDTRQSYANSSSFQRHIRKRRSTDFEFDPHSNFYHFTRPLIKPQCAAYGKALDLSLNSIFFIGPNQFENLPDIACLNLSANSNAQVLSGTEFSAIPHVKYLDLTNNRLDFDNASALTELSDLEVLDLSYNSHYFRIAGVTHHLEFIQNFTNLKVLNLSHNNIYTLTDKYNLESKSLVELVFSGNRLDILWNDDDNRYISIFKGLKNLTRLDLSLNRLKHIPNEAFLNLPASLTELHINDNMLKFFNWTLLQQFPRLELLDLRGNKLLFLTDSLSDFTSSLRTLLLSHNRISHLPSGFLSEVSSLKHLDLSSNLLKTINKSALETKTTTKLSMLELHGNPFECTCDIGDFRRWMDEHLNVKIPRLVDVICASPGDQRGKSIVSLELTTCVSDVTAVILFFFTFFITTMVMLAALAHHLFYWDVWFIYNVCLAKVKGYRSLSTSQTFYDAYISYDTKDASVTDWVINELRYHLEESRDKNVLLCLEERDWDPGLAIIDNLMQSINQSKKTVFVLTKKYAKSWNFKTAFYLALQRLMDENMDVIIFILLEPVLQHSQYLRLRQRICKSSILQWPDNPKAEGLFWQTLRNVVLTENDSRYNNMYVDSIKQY
assay-details: HEK293-Blue-hTLR-8 cells assay (SEAP reporter, R848 stimulation)
condition-parameters: HEK293-Blue-hTLR8 cells, R848 ligand, 20 hrs incubation
Kindly supply the reported pIC50 values for the records listed here.
Numbers only, as −log10 of the molar value.

Examples with their reported pIC50 follow.
>>> value_observed("N#Cc1ccc(N2C[C@H](CN3CCCC4(CCNCC4)C3)[C@@H](C(F)(F)F)C2)c2cccnc12")
7.07
>>> value_observed("CC1(CN)CCN(C[C@H]2CN(c3ccc(C#N)c4nccnc34)C[C@@H]2C(F)(F)F)C1 (some centres unmarked)")
7.12
>>> value_observed("N#Cc1ccc(N2C[C@H](CN3CCCC(C(N)=O)C3)[C@@H](C(F)(F)F)C2)c2nccnc12 (some centres unmarked)")
6.14
>>> value_observed("C[C@H]1CN(c2ccc(C#N)c3nccnc23)C[C@@H]1CN1CCC2(CCNC2)C1 (some centres unmarked)")
7.14
>>> value_observed("C[C@@H]1CN(c2ccc(C(F)(F)F)c3nccnc23)C[C@H]1CN1CCC2(CCNCC2)CC1 (relative stereo)")
6.45

Return reported pIC50 values for all items listed beneath this line.
1. N#Cc1ccc(N2C[C@H](CN3CCC(N4CCNCC4)CC3)[C@@H](C(F)(F)F)C2)c2cccnc12
2. N#Cc1ccc(N2C[C@H](CN3CCC(N)C(F)(F)C3)[C@@H](C(F)(F)F)C2)c2nccnc12 (some centres unmarked)
3. CN1CCC2(CCN(C[C@H]3CN(c4ccc(C#N)c5nccnc45)C[C@@H]3C(F)(F)F)C2)C1 (some centres unmarked)
4. N#Cc1ccc(N2CC(CN3CCC4(CCCNC4)CC3)C3(CC3)C2)c2nccnc12 (centres unmarked)
5. N#Cc1ccc(N2C[C@H](CN3CCC4(CCCNC4)CC3)[C@@H](C(F)(F)F)C2)c2nccnc12
6. N#Cc1ccc(N2CC(CN3CCC4(CCNCC4)C3)C3(CC3)C2)c2nccnc12 (centres unmarked)

1: 7.06; 2: 7.07; 3: 7.24; 4: 7.30; 5: 7.49; 6: 6.95

Batch request: pIC50 per item, same order as input.
1. N#Cc1ccc(N2C[C@@H](CN3CCC4(CCNCC4)CC3)[C@H](C3CC3)C2)c2cccnc12 (relative stereo)
2. C[C@H]1CN(c2ccc(C#N)c3ncccc23)C[C@@H]1CN1CCC2(CCNC2)C1 (some centres unmarked)
3. N#Cc1ccc(N2C[C@H](CN3CCC4(CCNCC4)CC3)[C@@H](C(F)(F)F)C2)c2cccnc12
4. CC[C@@H]1CN(c2ccc(C#N)c3ncccc23)C[C@H]1CN1CCC2(CCNCC2)CC1 (relative stereo)
5. N#Cc1ccc(N2C[C@@H](CN3CCC4(CCNCC4)CC3)[C@H](C(F)F)C2)c2cccnc12 (relative stereo)

1: 6.02; 2: 6.61; 3: 7.24; 4: 6.72; 5: 6.34

Value sought for every listed compound: pIC50.
1. N#Cc1ccc(N2C[C@H](CN3CCC4(CCNCC4)CC3)[C@@H](C(F)(F)F)C2)c2nccnc12
2. CC[C@@H]1CN(c2ccc(C#N)c3ncccc23)C[C@H]1CN1CCC2(CCNC2)C1 (relative stereo)
3. CC(C)[C@@H]1CN(c2ccc(C#N)c3ncccc23)C[C@H]1CN1CCC2(CCNCC2)CC1 (relative stereo)
4. CNCC1CCN(C[C@H]2CN(c3ccc(C#N)c4nccnc34)C[C@@H]2C(F)(F)F)CC1

1: 7.70; 2: 6.71; 3: 5.29; 4: 7.60

Please look at the items below and tell me pIC50 for each one, in order.
1. N#Cc1ccc(N2CC(CN3C[C@H]4CNC[C@H]4C3)C3(CC3)C2)c2nccnc12 (some centres unmarked)
2. N#Cc1ccc(N2C[C@@H](CN3CCC4(CCNC4)C3)[C@H](C(F)F)C2)c2cccnc12 (relative stereo)
3. N#Cc1ccc(N2C[C@H](CN3CCC4(CCNC4)CC3)[C@@H](C(F)(F)F)C2)c2nccnc12

1. 7.09
2. 6.43
3. 7.72

Go through the list and state pIC50 for each entry.
1. N#Cc1ccc(N2CC(CN3CCNCC3)C3(CC3)C2)c2nccnc12 (centres unmarked)
2. N#Cc1ccc(N2C[C@H](CN3CCC(CCN)CC3)[C@@H](C(F)(F)F)C2)c2nccnc12
3. CC(C)[C@@H]1CN(c2ccc(C#N)c3ncccc23)C[C@H]1CN1CCC2(CCNC2)C1 (relative stereo)
4. N#Cc1ccc(N2C[C@H](CN3CCNCC3)[C@@H](C(F)(F)F)C2)c2nccnc12
5. N#Cc1ccc(N2CC(CN3CCOC4(CCNCC4)C3)C3(CC3)C2)c2nccnc12 (centres unmarked)
6. C[C@H]1CN(c2ccc(C#N)c3nccnc23)C[C@@H]1CN1CCC2(CCNCC2)CC1

[7.92, 6.99, 6.27, 7.85, 7.39, 7.19]

---

tested-target: human TLR8 (Homo sapiens, UniProt Q9NR97)
assay-details: HEK293-Blue-hTLR-8 cells assay (SEAP reporter, R848 stimulation)
condition-parameters: HEK293-Blue-hTLR8 cells, R848 ligand, 20 hrs incubation
measurement-type: IC50 (nM)
Give bare numbers, in nM.

>>> value_observed("N#Cc1ccc(N2C[C@H](CN3CC4(CCCNC4)C3)[C@@H](C(F)(F)F)C2)c2cccnc12 [Example 8]")
55
>>> value_observed("N#Cc1ccc(N2CC(CN3CC4(CCCNC4)C3)C3(CC3)C2)c2nccnc12 (centres unmarked) [Example 24]")
63
>>> value_observed("N#Cc1ccc(N2C[C@H](CN3CCC4(CCNC4)C3)[C@@H](C(F)(F)F)C2)c2nccnc12 (some centres unmarked) [Example 5]")
35
>>> value_observed("N#Cc1ccc(N2C[C@H](CN3CCC(N4CCCC4)CC3)[C@@H](C(F)(F)F)C2)c2nccnc12 [Example 60]")
43
>>> value_observed("N#Cc1ccc(N2C[C@H](CN3CCC(N)CC3)[C@@H](C(F)(F)F)C2)c2nccnc12 [Example 26]")
21

// each listed compound needs a value for IC50
1. N#Cc1ccc(N2CC(CN3CCC(N4CCCCC4)CC3)C3(CC3)C2)c2nccnc12 (centres unmarked) [Example 11]
2. N#Cc1ccc(N2CC(CN3CCC4(CC3)CNCCO4)C3(CC3)C2)c2nccnc12 (centres unmarked) [Example 49]
3. CC1(N)CCN(CC2CN(c3ccc(C#N)c4nccnc34)CC23CC3)CC1 (centres unmarked) [Example 7]
4. N#Cc1ccc(N2C[C@H](CN3CCC(CN)CC3)[C@@H](C(F)(F)F)C2)c2nccnc12 [Example 74]
5. FC(F)(F)c1ccc(N2CC(CN3CCNCC3)C3(CC3)C2)c2nccnc12 (centres unmarked) [Example 20]
6. N#Cc1ccc(N2CC(CN3C4CCC3CC(N)C4)C3(CC3)C2)c2nccnc12 (centres unmarked) [Example 25]

1: 24; 2: 24; 3: 43; 4: 55; 5: 68; 6: 108

---

tested-target: human TLR9 (Homo sapiens, UniProt Q9NR96)
Sequence (Q9NR96 26-1032): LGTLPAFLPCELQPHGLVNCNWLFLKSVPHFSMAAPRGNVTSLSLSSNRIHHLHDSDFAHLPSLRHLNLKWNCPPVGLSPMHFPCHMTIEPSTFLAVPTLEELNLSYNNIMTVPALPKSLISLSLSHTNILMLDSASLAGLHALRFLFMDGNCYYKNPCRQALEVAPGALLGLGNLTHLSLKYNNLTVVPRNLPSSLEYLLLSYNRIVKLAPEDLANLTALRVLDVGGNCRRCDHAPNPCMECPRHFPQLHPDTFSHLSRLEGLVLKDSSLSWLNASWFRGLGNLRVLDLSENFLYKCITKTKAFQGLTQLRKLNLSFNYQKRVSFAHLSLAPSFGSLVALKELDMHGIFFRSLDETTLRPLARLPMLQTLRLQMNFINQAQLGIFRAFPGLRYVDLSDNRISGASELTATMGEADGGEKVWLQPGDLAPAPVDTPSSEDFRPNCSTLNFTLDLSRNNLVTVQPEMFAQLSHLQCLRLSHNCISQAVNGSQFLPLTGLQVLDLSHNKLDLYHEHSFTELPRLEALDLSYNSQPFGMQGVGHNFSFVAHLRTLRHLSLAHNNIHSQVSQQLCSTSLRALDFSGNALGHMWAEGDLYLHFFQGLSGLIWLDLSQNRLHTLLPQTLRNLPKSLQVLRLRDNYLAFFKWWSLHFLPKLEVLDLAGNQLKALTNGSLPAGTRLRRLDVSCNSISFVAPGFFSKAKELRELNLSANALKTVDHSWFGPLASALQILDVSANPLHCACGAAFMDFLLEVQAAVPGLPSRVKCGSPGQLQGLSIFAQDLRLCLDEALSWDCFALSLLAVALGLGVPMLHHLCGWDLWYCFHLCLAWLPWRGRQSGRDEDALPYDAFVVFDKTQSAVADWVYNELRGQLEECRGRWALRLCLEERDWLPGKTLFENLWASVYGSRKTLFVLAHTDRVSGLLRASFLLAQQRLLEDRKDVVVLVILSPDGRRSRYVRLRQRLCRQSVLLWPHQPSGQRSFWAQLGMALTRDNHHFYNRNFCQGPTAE
assay-details: HEK293-Blue-hTLR-9 cells assay (SEAP reporter, ODN2006 stimulation)
condition-parameters: HEK293-Blue-hTLR9 cells, ODN2006 ligand, 20 hrs incubation
Can you tell me pIC50 for the items I'm about to list?
Answers are plain numbers, as −log10 of the molar value.

>>> value_observed("N#Cc1ccc(N2C[C@H](CN3CC4(CCCNC4)C3)[C@@H](C(F)(F)F)C2)c2cccnc12")
6.95
>>> value_observed("N#Cc1ccc(N2C[C@H](CN3C4CCC3CC(N)C4)[C@@H](C(F)(F)F)C2)c2nccnc12 (some centres unmarked)")
6.53
>>> value_observed("CC(C)[C@@H]1CN(c2ccc(C#N)c3ncccc23)C[C@H]1CN1CCC2(CCNCC2)CC1 (relative stereo)")
7.30
>>> value_observed("N#Cc1ccc(N2C[C@H](CN3CCCC(C(N)=O)C3)[C@@H](C(F)(F)F)C2)c2nccnc12 (some centres unmarked)")
4.80
>>> value_observed("N#Cc1ccc(N2C[C@H](CN3CCC(N4CCCC4)CC3)[C@@H](C(F)(F)F)C2)c2nccnc12")
6.29

# map each compound to its pIC50
1. N#Cc1ccc(N2CC(CN3CCC4(CCCNC4)CC3)C3(CC3)C2)c2nccnc12 (centres unmarked)
2. N#Cc1ccc(N2C[C@H](CN3CCCC(F)(CN)C3)[C@@H](C(F)(F)F)C2)c2nccnc12 (some centres unmarked)
3. CN(C)C1CCN(C[C@H]2CN(c3ccc(C#N)c4nccnc34)C[C@@H]2C(F)(F)F)CC1

7.22
5.72
6.15

I have 3 compounds here; please give me pIC50 for each one.
1. N#Cc1ccc(N2C[C@@H](CN3CCC4(CCNCC4)CC3)[C@H](C3CC3)C2)c2cccnc12 (relative stereo)
2. CN(C)C[C@@H]1CCN(C[C@H]2CN(c3ccc(C#N)c4nccnc34)C[C@@H]2C(F)(F)F)C1
3. N#Cc1ccc(N2C[C@H](CN3CC4CCC(C3)C4N)[C@@H](C(F)(F)F)C2)c2nccnc12 (some centres unmarked)

7.41
6.52
5.92
